System: phospho(Ser63)-c-jun in HK-2 cells
PROTOCOL_DESCRIPTION: Cell-Based Assay for JNK Inhibitors (in-cell ELISA, phospho(Ser63)-c-jun after TNFα)
CONDITION_DESCRIPTION: HK-2 cells (human proximal tubule cells), 60 minutes compound, then 10 ng/mL TNFα for 30 minutes
pEC50: −log10 of the molar value.
Label scheme for pEC50: lower than 5 is false (0), 5 and above is true (1).

[
  {
    "MOLECULE": "O=c1c(CNc2ncnc3cc(F)ccc23)cn(-c2ccccc2)c2cc(Cl)ccc12",
    "CLASSIFICATION": "false (0)"
  },
  {
    "MOLECULE": "O=C(NCc1cn(-c2ccccc2)c2cc(Cl)ccc2c1=O)c1ccc(C(=O)NC2C3CC4CC2CC(O)(C4)C3)cc1 (stereo not shown)",
    "CLASSIFICATION": "true (1)"
  },
  {
    "MOLECULE": "CN(C)C(=O)c1c(CNC(=O)c2ccc(N3CCOCC3)nc2)c(=O)c2ccc(Cl)cc2n1-c1ccccc1",
    "CLASSIFICATION": "false (0)"
  },
  {
    "MOLECULE": "CS(=O)(=O)C1CCN(c2ncc(C(=O)NCc3cn(-c4ccccc4)c4cc(Cl)ccc4c3=O)s2)CC1",
    "CLASSIFICATION": "false (0)"
  },
  {
    "MOLECULE": "NC(=O)N1CCN(c2ccc(C(=O)NCc3cn(-c4ccccc4)c4cc(Cl)ccc4c3=O)cn2)CC1",
    "CLASSIFICATION": "false (0)"
  },
  {
    "MOLECULE": "COC(=O)c1c(CNC(=O)c2ccc(-c3cc[nH]n3)cc2)c(=O)c2ccc(Cl)cc2n1-c1ccccc1",
    "CLASSIFICATION": "true (1)"
  }
]

---

Tested on: phospho(Ser63)-c-jun in HK-2 cells
PROTOCOL_DESCRIPTION: Cell-Based Assay for JNK Inhibitors (in-cell ELISA, phospho(Ser63)-c-jun after TNFα)
CONDITION_DESCRIPTION: HK-2 cells (human proximal tubule cells), 60 minutes compound, then 10 ng/mL TNFα for 30 minutes
Source text: Cell-Based Assay for JNK Inhibitors The cell-based assay employed the in-cell ELISA method to determine the ability of compounds to prevent the generation of phospho(Ser63)-c-jun in HK-2 cells (human proximal tubule cells) in response to stimulation with tumor necrosis factor α (TNFα). […]
pEC50: −log10 of the molar value.
pEC50 values, listed per item

[
  {
    "STRUCTURE_STRING": "O=C(NCc1cn(-c2ccccc2)c2cc(Cl)ccc2c1=O)c1ccc2nc[nH]c2c1",
    "pEC50": 4.00
  },
  {
    "STRUCTURE_STRING": "COC(=O)c1c(CNC(=O)c2ccc(S(C)(=O)=O)cc2)c(=O)c2ccc(Cl)cc2n1-c1ccccc1",
    "pEC50": 5.24
  },
  {
    "STRUCTURE_STRING": "COC(=O)c1c(CNC(=O)c2ccc(-c3nnn(C)n3)cc2)c(=O)c2ccc(C(F)(F)F)nc2n1-c1ccccc1",
    "pEC50": 4.80
  },
  {
    "STRUCTURE_STRING": "O=C(NCc1cn(-c2ccccc2F)c2cc(F)ccc2c1=O)c1cnn(-c2ccccc2)c1",
    "pEC50": 4.92
  },
  {
    "STRUCTURE_STRING": "COc1cccc(Cn2ccc(C(=O)NCc3cn(-c4ccccc4)c4cc(Cl)ccc4c3=O)cc2=O)c1",
    "pEC50": 4.80
  },
  {
    "STRUCTURE_STRING": "COc1ccc(C(=O)NCc2cn(-c3ccccc3)c3cc(Cl)ccc3c2=O)cc1OC",
    "pEC50": 4.59
  },
  {
    "STRUCTURE_STRING": "COC(=O)c1c(CNC(=O)c2cccc(Cl)c2)c(=O)c2ccc(Cl)cc2n1-c1ccccc1",
    "pEC50": 5.01
  },
  {
    "STRUCTURE_STRING": "O=C(NCc1cn(-c2ccccc2)c2cc(Cl)ccc2c1=O)c1ccc(N2CC[C@@H](O)C2)nc1",
    "pEC50": 4.48
  },
  {
    "STRUCTURE_STRING": "COC(=O)c1c(CNC(=O)c2ccc(OC)cc2)c(=O)c2ccc(Cl)cc2n1-c1ccccc1",
    "pEC50": 5.72
  },
  {
    "STRUCTURE_STRING": "COC(=O)c1c(CNC(=O)c2ccc(F)c(Cl)c2)c(=O)c2ccc(Cl)cc2n1-c1ccccc1",
    "pEC50": 5.15
  },
  {
    "STRUCTURE_STRING": "COC(=O)c1c(CNC(=O)c2ccc(-c3nnn(C)n3)cc2)c(=O)c2ccc(Cl)cc2n1-c1ccccc1",
    "pEC50": 4.96
  },
  {
    "STRUCTURE_STRING": "O=C(NCc1cn(-c2ccccc2)c2cc(Cl)ccc2c1=O)c1ccnc(N2CCCC2)c1",
    "pEC50": 4.54
  },
  {
    "STRUCTURE_STRING": "O=C(NCc1cn(-c2ccccc2)c2cc(Cl)ccc2c1=O)c1cnc(N2CCCCC2)s1",
    "pEC50": 4.72
  },
  {
    "STRUCTURE_STRING": "COC(=O)c1c(CNC(=O)c2ccc(F)c(F)c2)c(=O)c2ccc(OC)cc2n1-c1ccccc1",
    "pEC50": 4.42
  },
  {
    "STRUCTURE_STRING": "COC(=O)c1c(CNC(=O)c2ccc(S(N)(=O)=O)cc2)c(=O)c2ccc(C(F)(F)F)nc2n1-c1ccccc1",
    "pEC50": 5.00
  }
]

---

Test system: phospho(Ser63)-c-jun in HK-2 cells
PROTOCOL_DESCRIPTION: Cell-Based Assay for JNK Inhibitors (in-cell ELISA, phospho(Ser63)-c-jun after TNFα)
CONDITION_DESCRIPTION: HK-2 cells (human proximal tubule cells), 60 minutes compound, then 10 ng/mL TNFα for 30 minutes
Structures can show the parent of a compound that is named as a salt.
EXPERIMENTAL_READOUT: log10(EC50) (log10 of the value in µM)

[
  {
    "COMPOUND": "COc1ccc(C(=O)NCc2c(C(=O)N(C)C)n(-c3ccccc3)c3cc(Cl)ccc3c2=O)cc1",
    "log10(EC50)": 1.73
  },
  {
    "COMPOUND": "COC(=O)c1c(CNC(=O)c2ccc(F)cc2)c(=O)c2ccc(OC)cc2n1-c1ccccc1",
    "log10(EC50)": 2.00
  },
  {
    "COMPOUND": "O=C(NCc1cn(-c2ccccc2)c2cc(Cl)ccc2c1=O)c1ccc(N2C[C@@H]3C[C@H]2CN3)nc1 (stereo in doubt) [Example I-89, trifluoroacetate]",
    "log10(EC50)": 1.49
  },
  {
    "COMPOUND": "COC(=O)c1c(CNC(=O)c2cccc(OC)c2)c(=O)c2ccc(OC)cc2n1-c1ccccc1",
    "log10(EC50)": 1.26
  },
  {
    "COMPOUND": "O=C(NCc1cn(-c2ccccc2)c2cc(Cl)ccc2c1=O)c1ccc(N2CCC(CCO)CC2)nc1",
    "log10(EC50)": 0.58
  },
  {
    "COMPOUND": "COC(=O)c1c(CNC(=O)c2cnn(Cc3ccccc3)c2)c(=O)c2ccc(Cl)cc2n1-c1ccccc1",
    "log10(EC50)": 0.80
  },
  {
    "COMPOUND": "CN(C)C(=O)c1c(CNC(=O)c2ccc(N3CCCCC3)nc2)c(=O)c2ccc(Cl)cc2n1-c1ccccc1 [Example I-28, trifluoroacetate salt]",
    "log10(EC50)": 0.99
  },
  {
    "COMPOUND": "O=C(NCc1c(-c2ncco2)n(-c2ccccc2)c2ncccc2c1=O)c1ccc(N2CCOCC2)nc1",
    "log10(EC50)": 0.72
  },
  {
    "COMPOUND": "CN(C)C(=O)c1c(CNC(=O)c2cnn(C)c2)c(=O)c2ccc(Cl)cc2n1-c1ccccc1",
    "log10(EC50)": 1.94
  },
  {
    "COMPOUND": "COC(=O)c1c(CNC(=O)c2ccccc2)c(=O)c2ccc(Cl)cc2n1-c1ccccc1",
    "log10(EC50)": 0.89
  },
  {
    "COMPOUND": "COC(=O)c1c(CNC(=O)c2ccc(-c3csc(C)n3)cc2)c(=O)c2ccc(Cl)cc2n1-c1ccccc1",
    "log10(EC50)": 1.58
  },
  {
    "COMPOUND": "O=C(NCc1c(-c2ncco2)n(-c2ccccc2)c2cc(Cl)ccc2c1=O)c1ccnc(N2CCOCC2)c1",
    "log10(EC50)": 0.43
  },
  {
    "COMPOUND": "COC(=O)c1c(CNC(=O)c2ccc(-c3nnc[nH]3)cc2)c(=O)c2ccc(Cl)cc2n1-c1ccccc1",
    "log10(EC50)": 0.11
  },
  {
    "COMPOUND": "COC(=O)c1c(CNC(=O)c2ccc(OC)c(OC)c2)c(=O)c2ccc(Cl)cc2n1-c1ccccc1",
    "log10(EC50)": 0.00
  },
  {
    "COMPOUND": "O=C(NCc1cn(-c2ccccc2F)c2cc(F)ccc2c1=O)c1ccc(N2CCC(CO)CC2)nc1",
    "log10(EC50)": 1.70
  }
]
